Cited source: ChEMBL document CHEMBL3124787

- Test system: Mycobacterium tuberculosis
- Experiment Notes: Antitubercular activity against isoniazid-resistant Mycobacterium tuberculosis H37RV clinical isolate 1 assessed as growth inhibition by microdilution method
- Type: functional
- Protocol Conditions: H37Rv isolate 1

Compound: CC(=O)NC[C@H]1CN(c2ccc(N3CCOCC3)c(F)c2)C(=O)O1 [LINEZOLID]
MIC / µg/mL: 0.25

Compound: NNC(=O)c1ccncc1 [ISONIAZID]
MIC / µg/mL: 2

Compound: CC(=O)NC[C@H]1CN(c2ccc(OC[C@@H]3CN(c4ccccc4)C(=O)O3)c(F)c2)C(=O)O1
MIC / µg/mL: 8

Compound: COc1ccc(N2C[C@@H](COc3ccc(N4C[C@H](CNC(C)=O)OC4=O)cc3F)OC2=O)cc1
MIC / µg/mL: 4
